Field: koff. Provide a value for each of the binders that follow.
# assay target: T1, recombinant human EphA5 (rhEphA5) antigen (human, UniProt P54756 25-573)
# T1 construct: also called human EphA5 (R and D systems, Cat. No. 3036-A5); recombinant EphA5
# T1 sequence (P54756 25-573 limits assumed): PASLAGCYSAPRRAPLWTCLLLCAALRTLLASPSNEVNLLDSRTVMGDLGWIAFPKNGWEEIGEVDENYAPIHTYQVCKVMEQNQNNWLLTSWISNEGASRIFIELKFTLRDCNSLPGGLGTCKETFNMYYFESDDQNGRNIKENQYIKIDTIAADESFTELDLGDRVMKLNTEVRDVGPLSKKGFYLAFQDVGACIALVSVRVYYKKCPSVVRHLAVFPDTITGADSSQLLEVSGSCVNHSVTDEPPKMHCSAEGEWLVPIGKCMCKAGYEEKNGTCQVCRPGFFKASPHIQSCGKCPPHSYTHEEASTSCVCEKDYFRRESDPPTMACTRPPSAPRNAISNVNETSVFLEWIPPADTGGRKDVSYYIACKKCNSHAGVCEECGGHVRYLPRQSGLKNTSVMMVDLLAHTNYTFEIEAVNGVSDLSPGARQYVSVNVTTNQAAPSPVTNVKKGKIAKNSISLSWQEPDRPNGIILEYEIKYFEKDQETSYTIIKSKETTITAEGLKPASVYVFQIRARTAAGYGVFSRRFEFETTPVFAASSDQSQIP
# assay text: SPR single-cycle kinetics (Biacore T200), IgG from HEK supernatant captured on anti-human IgG CM5 chip, rhEphA5 as analyte, 1:1 fit
Give bare numbers, in s⁻¹.

Reference set, count: 2
binder	recorded measurement
VH5/VK2 humanized 11C12 antibody (antibody, human IgG1, kappa, V domains shown, Human IgG1/kappa; lead variant, tested as HEK supernatant and as protein purified from CHO; also called H5K2) VH: EVQLVESGGGLVQPGGSLKLSCAASGFTFSTFGIHWVRQAPGKGLEWVAYISGASTTIYYADSVKGRFTISRDNSKNTLYLQMNSLRAEDTAVYYCARYGTSFPYGLDYWGQGTLVTVSS VL: DIVMTQSPDSLAVSLGERATINCKASQSVDYDGDSYMNWYQQKPGKAPKLLIYGASNLESGIPDRFSGSGSGTDFTLTISRLEPEDAASYYCQQSNEDPFTFGQGTKLEIKR	0.00123
chimeric VH0/VK0 antibody (murine 11C12 variable regions, human IgG1/kappa constant regions) (antibody, V domains shown, also called chimeric antibody) VH: EVTLKESGGGLVQPGGSRKLSCAASGFTFSTFGIHWVRQAPEKGLEWVAYISGASTTIYYADTVKGRFTISRDNPKNTLFLQMTSLRSEDTAMYYCARYGTSFPYGLDYWGQGTSVTVSS VL: DIVMTQSPGSLAVSLGQRATISCKASQSVDYDGDSYMNWYQQKPGQPPKLLIYGASNLESGIPARFSGSGSGTDFTLNIHPVEEEDAASYYCQQSNEDPFTFGSGTKLEIKR	0.00153

// koff lookup, binder = VH1/VK0 (antibody, human IgG1, kappa, V domains shown, tested as HEK supernatant; also called control antibody (humanized VH1 heavy chain with chimeric light chain)) VH: EVTLVESGGGLVQPGGSRKLSCAASGFTFSTFGIHWVRQAPGKGLEWVAYISGASTTIYYADTVKGRFTISRDNSKNTLYLQMNSLRSEDTAMYYCARYGTSFPYGLDYWGQGTSVTVSS VL: DIVMTQSPGSLAVSLGQRATISCKASQSVDYDGDSYMNWYQQKPGQPPKLLIYGASNLESGIPARFSGSGSGTDFTLNIHPVEEEDAASYYCQQSNEDPFTFGSGTKLEIKR , result: 0.00127
